- Test conditions: 343.15 K; 101.33 kPa; Liquid
mass density for assorted molecules
Give the number; kg/m3 is assumed, so skip it.

Would you please look over these solved cases?
C[NH+](CCO)CCO.C[NH+](CCO)CCO.C[NH+](CCO)CCO.O=P([O-])([O-])[O-] [2-hydroxy-N-(2-hydroxyethyl)-N-methylethanaminium phosphate] ... 1185.52
CN(CCO)CCO.CN(CCO)CCO.O=S(=O)(O)O [2,2'-(methylimino)diethanol sulfate (2:1)] ... 1260.24

I have this molecule here, CCCCn1cc[n+](C)c1.F[B-](F)(F)F [1-butyl-3-methylimidazolium tetrafluoroborate] , and I need its recorded mass density. 1167.67

Next entry: CN(CCO)CCO 1002.25

* * *

- Test conditions: 313.15 K; 101.33 kPa; Liquid
mass density for assorted compounds
Give the number; kg/m3 is assumed, so skip it.

Would you please look over these solved cases?
CN(CCO)CCO.CN(CCO)CCO.O=S(=O)(O)O [2,2'-(methylimino)diethanol sulfate (2:1)] ... 1276.83
C[NH+](CCO)CCO.[Cl-] [2-hydroxy-N-(2-hydroxyethyl)-N-methylethanaminium chloride] ... 1174.71

I have this compound here, CN(CCO)CCO , and I need its recorded mass density. 1026.72

Next entry: F[B-](F)(F)F.[NH3+]CCO [2-hydroxyethanaminium tetrafluoroborate] 1482.62

Next entry: C[NH+](CCO)CCO.C[NH+](CCO)CCO.C[NH+](CCO)CCO.O=P([O-])([O-])[O-] [2-hydroxy-N-(2-hydroxyethyl)-N-methylethanaminium phosphate] 1208.49

Next entry: C[NH+](CCO)CCO.F[B-](F)(F)F 1418.1

Next entry: CCCCn1cc[n+](C)c1.F[B-](F)(F)F [1-butyl-3-methylimidazolium tetrafluoroborate] 1188.62

* * *

- Test conditions: 313.15 K; 101.33 kPa; Liquid
Numbers after ± are expanded uncertainties.
Value kind: viscosity
Remember to put the unit after the number in your answer.

Would you please look over these solved cases?
C[NH+](CCO)CCO.F[B-](F)(F)F ... 117.7 ± 5.6 mPa·s
CCCCn1cc[n+](C)c1.F[B-](F)(F)F [1-butyl-3-methylimidazolium tetrafluoroborate] ... 44.73 ± 0.61 mPa·s
CN(CCO)CCO.CN(CCO)CCO.O=S(=O)(O)O [2,2'-(methylimino)diethanol sulfate (2:1)] ... 1858 ± 360 mPa·s

I have this compound here, C[NH+](CCO)CCO.C[NH+](CCO)CCO.C[NH+](CCO)CCO.O=P([O-])([O-])[O-] [2-hydroxy-N-(2-hydroxyethyl)-N-methylethanaminium phosphate] , and I need its recorded viscosity. 2483 ± 520 mPa·s

Next entry: C[NH+](CCO)CCO.[Cl-] [2-hydroxy-N-(2-hydroxyethyl)-N-methylethanaminium chloride] 278.2 ± 26 mPa·s

* * *

- Test conditions: 333.15 K; 101.33 kPa; Liquid
# if measured viscosity < 600 mPa·s: 1  # else: 0

CN(CCO)CCO.CN(CCO)CCO.O=S(=O)(O)O [2,2'-(methylimino)diethanol sulfate (2:1)] ... 1
C[NH+](CCO)CCO.C[NH+](CCO)CCO.C[NH+](CCO)CCO.O=P([O-])([O-])[O-] [2-hydroxy-N-(2-hydroxyethyl)-N-methylethanaminium phosphate] ... 0
CCCCn1cc[n+](C)c1.F[B-](F)(F)F [1-butyl-3-methylimidazolium tetrafluoroborate] ... 1
C[NH+](CCO)CCO.F[B-](F)(F)F ... 1

Now for another entry.
Input C[NH+](CCO)CCO.[Cl-] [2-hydroxy-N-(2-hydroxyethyl)-N-methylethanaminium chloride] ; condition: viscosity strictly below 600 mPa·s. Does it hold? 1

* * *

mass density for assorted molecules
- Test conditions: 303.15 K; 101.33 kPa; Liquid
Give the number; kg/m3 is assumed, so skip it.

Would you please look over these solved cases?
C[NH+](CCO)CCO.F[B-](F)(F)F ... 1425.56
C[NH+](CCO)CCO.C[NH+](CCO)CCO.C[NH+](CCO)CCO.O=P([O-])([O-])[O-] [2-hydroxy-N-(2-hydroxyethyl)-N-methylethanaminium phosphate] ... 1215.95
CN(CCO)CCO.CN(CCO)CCO.O=S(=O)(O)O [2,2'-(methylimino)diethanol sulfate (2:1)] ... 1282.49
CCCCn1cc[n+](C)c1.F[B-](F)(F)F [1-butyl-3-methylimidazolium tetrafluoroborate] ... 1195.7
F[B-](F)(F)F.[NH3+]CCO [2-hydroxyethanaminium tetrafluoroborate] ... 1490.57

I have this molecule here, C[NH+](CCO)CCO.[Cl-] [2-hydroxy-N-(2-hydroxyethyl)-N-methylethanaminium chloride] , and I need its recorded mass density. 1180.42

Next entry: CN(CCO)CCO 1033.74

* * *

- Test conditions: 333.15 K; 101.33 kPa; Liquid
Value kind: mass density (kg/m3)
Give the number; kg/m3 is assumed, so skip it.

C[NH+](CCO)CCO.C[NH+](CCO)CCO.C[NH+](CCO)CCO.O=P([O-])([O-])[O-] [2-hydroxy-N-(2-hydroxyethyl)-N-methylethanaminium phosphate] ... 1193.23
C[NH+](CCO)CCO.F[B-](F)(F)F ... 1403.2
C[NH+](CCO)CCO.[Cl-] [2-hydroxy-N-(2-hydroxyethyl)-N-methylethanaminium chloride] ... 1163.75
CCCCn1cc[n+](C)c1.F[B-](F)(F)F [1-butyl-3-methylimidazolium tetrafluoroborate] ... 1174.6
CN(CCO)CCO.CN(CCO)CCO.O=S(=O)(O)O [2,2'-(methylimino)diethanol sulfate (2:1)] ... 1265.72
CN(CCO)CCO ... 1012.32

// next item, mass density requested
I have this compound here, F[B-](F)(F)F.[NH3+]CCO [2-hydroxyethanaminium tetrafluoroborate] , and I need its recorded mass density. 1467.85

* * *

- Test conditions: 323.15 K; 101.33 kPa; Liquid
mass density for assorted compounds
Give the number; kg/m3 is assumed, so skip it.

Would you please look over these solved cases?
CCCCn1cc[n+](C)c1.F[B-](F)(F)F [1-butyl-3-methylimidazolium tetrafluoroborate] ... 1181.59
C[NH+](CCO)CCO.C[NH+](CCO)CCO.C[NH+](CCO)CCO.O=P([O-])([O-])[O-] [2-hydroxy-N-(2-hydroxyethyl)-N-methylethanaminium phosphate] ... 1200.88

I have this compound here, F[B-](F)(F)F.[NH3+]CCO [2-hydroxyethanaminium tetrafluoroborate] , and I need its recorded mass density. 1474.94

Next entry: CN(CCO)CCO 1019.48

Next entry: C[NH+](CCO)CCO.[Cl-] [2-hydroxy-N-(2-hydroxyethyl)-N-methylethanaminium chloride] 1169.24

Next entry: C[NH+](CCO)CCO.F[B-](F)(F)F 1410.63

Next entry: CN(CCO)CCO.CN(CCO)CCO.O=S(=O)(O)O [2,2'-(methylimino)diethanol sulfate (2:1)] 1271.25

* * *

- Test conditions: 323.15 K; 101.33 kPa; Liquid
Value kind: log10 viscosity (log10 of the value in mPa·s)
Scale: log10; quantity: viscosity; unit before log: mPa·s

C[NH+](CCO)CCO.[Cl-] [2-hydroxy-N-(2-hydroxyethyl)-N-methylethanaminium chloride] ... 2.22
C[NH+](CCO)CCO.C[NH+](CCO)CCO.C[NH+](CCO)CCO.O=P([O-])([O-])[O-] [2-hydroxy-N-(2-hydroxyethyl)-N-methylethanaminium phosphate] ... 3.15
CN(CCO)CCO.CN(CCO)CCO.O=S(=O)(O)O [2,2'-(methylimino)diethanol sulfate (2:1)] ... 3.00
CCCCn1cc[n+](C)c1.F[B-](F)(F)F [1-butyl-3-methylimidazolium tetrafluoroborate] ... 1.49

// next item, log10 viscosity requested
I have this compound here, C[NH+](CCO)CCO.F[B-](F)(F)F , and I need its recorded log10 viscosity. 1.86

* * *

- Test conditions: 343.15 K; 101.33 kPa; Liquid
Value kind: viscosity (mPa·s)
Give the number; mPa·s is assumed, so skip it.

CCCCn1cc[n+](C)c1.F[B-](F)(F)F [1-butyl-3-methylimidazolium tetrafluoroborate] ... 16.75
C[NH+](CCO)CCO.F[B-](F)(F)F ... 32.35
CN(CCO)CCO.CN(CCO)CCO.O=S(=O)(O)O [2,2'-(methylimino)diethanol sulfate (2:1)] ... 350.4
C[NH+](CCO)CCO.C[NH+](CCO)CCO.C[NH+](CCO)CCO.O=P([O-])([O-])[O-] [2-hydroxy-N-(2-hydroxyethyl)-N-methylethanaminium phosphate] ... 385.4

// next item, viscosity requested
I have this molecule here, C[NH+](CCO)CCO.[Cl-] [2-hydroxy-N-(2-hydroxyethyl)-N-methylethanaminium chloride] , and I need its recorded viscosity. 70.45

* * *

- Test conditions: 343.15 K; 101.33 kPa; Liquid
Numbers after ± are expanded uncertainties.
mass density for assorted compounds

F[B-](F)(F)F.[NH3+]CCO [2-hydroxyethanaminium tetrafluoroborate] ... 1464.59 ± 3 kg/m3
C[NH+](CCO)CCO.F[B-](F)(F)F ... 1395.85 ± 3.1 kg/m3

// next item, mass density requested
I have this compound here, C[NH+](CCO)CCO.[Cl-] [2-hydroxy-N-(2-hydroxyethyl)-N-methylethanaminium chloride] , and I need its recorded mass density. 1158.29 ± 1.8 kg/m3

Entry source: the NIST ThermoML archive (doi:10.1021/je100078w)
